Observed pKi for UniProt P07477, reported per entry below.
pKi here: minus log base 10 of the concentration, concentration in moles per litre.

These solved cases illustrate the format of a correct answer.
CC(C)(Cc1ccc(C(=O)Oc2ccc(C(=N)N)cc2F)s1)C(=O)N[C@H]1CC[C@@H](C(=O)O)CC1; 8.77
CC(C)(Cc1ccc(C(=O)Oc2ccc(C(=N)N)cc2F)s1)C(=O)N[C@@H](C(=O)O)c1ccccc1; 8.84
COc1ncccc1NC(=O)C(C)(C)Cc1ccc(C(=O)Oc2ccc(C(=N)N)cc2F)s1; 8.73

Consider the molecule `CC(C)(Cc1ccc(C(=O)Oc2ccc(C(=N)N)cc2F)s1)C(=O)Nc1cccnc1` and give its measured pKi.
8.44

Would you kindly repeat that for `CC(C)(Cc1ccc(C(=O)Oc2ccc(C(=N)N)cc2F)s1)C(=O)N[C@H](C(=O)O)c1ccccc1` ?
8.82

###

Target Of Assay: recombinant human enteropeptidase (Homo sapiens (Human), UniProt P98073)
Sequence (P98073 whole entry): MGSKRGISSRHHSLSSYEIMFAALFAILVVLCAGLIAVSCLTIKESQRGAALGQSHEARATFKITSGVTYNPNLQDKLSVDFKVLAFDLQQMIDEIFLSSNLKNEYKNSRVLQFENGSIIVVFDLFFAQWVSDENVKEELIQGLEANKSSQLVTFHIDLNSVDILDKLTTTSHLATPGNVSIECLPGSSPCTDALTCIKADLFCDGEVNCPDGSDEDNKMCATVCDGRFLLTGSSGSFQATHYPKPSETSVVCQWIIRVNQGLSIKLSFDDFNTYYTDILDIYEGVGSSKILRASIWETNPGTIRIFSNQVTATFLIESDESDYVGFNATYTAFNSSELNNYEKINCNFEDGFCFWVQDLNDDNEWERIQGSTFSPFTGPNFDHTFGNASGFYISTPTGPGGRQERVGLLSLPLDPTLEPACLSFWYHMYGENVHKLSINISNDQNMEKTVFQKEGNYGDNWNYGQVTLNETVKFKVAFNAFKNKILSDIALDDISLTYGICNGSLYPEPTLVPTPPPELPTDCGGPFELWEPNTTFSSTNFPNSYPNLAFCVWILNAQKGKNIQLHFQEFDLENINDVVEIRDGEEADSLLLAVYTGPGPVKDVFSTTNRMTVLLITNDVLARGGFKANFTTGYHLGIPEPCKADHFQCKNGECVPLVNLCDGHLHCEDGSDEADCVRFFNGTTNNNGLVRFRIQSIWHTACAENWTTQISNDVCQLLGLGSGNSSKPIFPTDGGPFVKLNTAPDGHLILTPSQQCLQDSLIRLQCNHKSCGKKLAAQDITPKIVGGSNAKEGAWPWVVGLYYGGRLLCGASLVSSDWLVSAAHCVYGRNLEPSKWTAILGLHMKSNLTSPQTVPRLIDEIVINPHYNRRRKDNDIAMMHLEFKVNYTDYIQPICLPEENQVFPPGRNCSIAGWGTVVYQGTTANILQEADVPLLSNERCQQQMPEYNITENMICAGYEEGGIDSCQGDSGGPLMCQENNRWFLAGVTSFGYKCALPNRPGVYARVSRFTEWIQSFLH
Assay Overview: Measurement of enteropeptidase inhibitory activity
Condition Parameters: substrate Gly-Asp-Asp-Asp-Asp-Lys-β-Naphtylamide, Tris-HCl pH 8.0, Dixon plot
Method: Measurement of Enteropeptidase Inhibitory Activity Using a 96 well plate (#3915, Costar), a test compound (25 μL), 400 mM Tris-HCl buffer (pH 8.0, 25 μL) and 0.5 mg/mL fluorescence enzyme substrate (Gly-Asp-Asp-Asp-Asp-Lys-β-Naphtylamide, 25 μL) were mixed, and recombinant human enteropeptidase (R&D Systems, Inc., 25 μL) was added. […] The Ki value was calculated from the concentration of the test compound, reciprocal of reaction rate, and Km value of the enzyme substrate, and by using Dixon plot.
Where a name gives a salt, the structure may show the parent alone.
This listing pairs compounds with measured log10 of Ki.
log10 Ki, nM

These solved cases illustrate the format of a correct answer.
CC(C)(Cc1ccc(C(=O)Oc2ccc(C(=N)N)cc2F)s1)C(=O)N[C@H](C(=O)O)C1CCCCC1; 0.41
CCC(CC)(Cc1ccc(C(=O)Oc2ccc(C(=N)N)cc2F)s1)C(=O)NCCC(=O)O; 0.00
CCC(CC)(Cc1ccc(C(=O)Oc2ccc(C(=N)N)cc2F)s1)C(=O)NCc1ccc(C(=O)O)cc1; 0.43
CC(C)(Cc1ccc(C(=O)Oc2ccc(C(=N)N)cc2F)s1)C(=O)N1CCc2ccc(C(=O)O)cc2C1; 0.54
CC(C)(Cc1ccc(C(=O)Oc2ccc(C(=N)N)cc2F)s1)C(=O)N[C@@H](CO)C(=O)O; -0.34

// map `CCC(CC)(Cc1ccc(C(=O)Oc2ccc(C(=N)N)cc2F)s1)C(=O)Nc1ccc(CC(=O)O)cc1` to recorded log10 of Ki (system: recombinant human enteropeptidase (Homo sapiens (Human), UniProt P98073))
0.38

Would you kindly repeat that for `CC(C)(Cc1ccc(C(=O)Oc2ccc(C(=N)N)cc2F)s1)C(=O)NCCc1nnn[nH]1` ?
-0.28

Would you kindly repeat that for `CN(CC(=O)O)C(=O)C(C)(C)Cc1ccc(C(=O)Oc2ccc(C(=N)N)cc2F)s1` ?
-0.39

Would you kindly repeat that for N=C(N)c1ccc(OC(=O)c2ccc(CC3(C(=O)N[C@@H](CC(=O)O)C(=O)O)CCCC3)s2)c(F)c1 [Compound 2, trifluoroacetic acid salt] ?
-0.14

Would you kindly repeat that for `CCC(CC)(Cc1ccc(C(=O)Oc2ccc(C(=N)N)cc2F)s1)C(=O)Nc1cc(C(=O)O)cc(C(=O)OC)c1` ?
0.57

###

Target Of Assay: human trypsin (Homo sapiens)
Ki under 0.8 nM gets yes (1), anything at or over 0.8 nM gets no (0).

Consider the worked cases shown below.
CC(C)(Cc1ccc(C(=O)Oc2ccc(C(=N)N)cc2F)s1)C(=O)Nc1cc(C(=O)O)cc(C(=O)O)c1; yes (1)
CC(C)(Cc1ccc(C(=O)Oc2ccc(C(=N)N)cc2F)s1)C(=O)NC(CCC(=O)O)(CCC(=O)O)CCC(=O)O; no (0)
CC(C)(Cc1ccc(C(=O)Oc2ccc(C(=N)N)cc2F)s1)C(=O)N[C@H](C(=O)O)C1CCCCC1; no (0)
CC(C)(Cc1ccc(C(=O)Oc2ccc(C(=N)N)cc2F)s1)C(=O)N[C@@H](CO)C(=O)O; yes (1)

Find out if reported Ki for `CCC(CC)(Cc1ccc(C(=O)Oc2ccc(C(=N)N)cc2F)s1)C(=O)Nc1cc(C(=O)O)cc(C(=O)OC)c1` is less than 0.8 nM
no (0)

###

This listing pairs compounds with measured Ki.
Target Of Assay: human trypsin
Assay Overview: Measurement of trypsin inhibitory activity
Condition Parameters: substrate Boc-Phe-Ser-Arg-AMC, Tris-HCl pH 8.0, Dixon plot
Structures can show the parent of a compound that is named as a salt.
Supply the numeric figure in nM, leaving out any unit text.

These solved cases illustrate the format of a correct answer.
CC(C)(Cc1ccc(C(=O)Oc2ccc(C(=N)N)cc2F)s1)C(=O)N1CCC[C@H]1CC(=O)O; 3.88
CCC(CC)(Cc1ccc(C(=O)Oc2ccc(C(=N)N)cc2F)s1)C(=O)N[C@H](CCC(=O)O)C(=O)O; 1.96
CC(C)(Cc1ccc(C(=O)Oc2ccc(C(=N)N)cc2F)s1)C(=O)N(CC(=O)O)CC1CC1; 2.01

Consider the compound CCCN(CC(=O)O)C(=O)C(C)(C)Cc1ccc(C(=O)Oc2ccc(C(=N)N)cc2F)s1 [Compound 10, hydrochloride] and give its measured Ki.
1.5

Would you kindly repeat that for `CCC(CC)(Cc1ccc(C(=O)Oc2ccc(C(=N)N)cc2F)s1)C(=O)NCCCCC(=O)O` ?
5.17

Would you kindly repeat that for `CCC(CC)(Cc1ccc(C(=O)Oc2ccc(C(=N)N)cc2F)s1)C(=O)N[C@H](C(=O)O)C(C)C` ?
5.18

Would you kindly repeat that for `CC(C)(Cc1ccc(C(=O)Oc2ccc(C(=N)N)cc2F)s1)C(=O)NC1(C(=O)O)CC1` ?
1.01

Would you kindly repeat that for `CC(C)(Cc1ccc(C(=O)Oc2ccc(C(=N)N)cc2F)s1)C(=O)NCC(=O)O` ?
0.42

###

Target Of Assay: recombinant human enteropeptidase (Homo sapiens (Human), UniProt P98073)
Assay Overview: Measurement of enteropeptidase inhibitory activity
Condition Parameters: substrate Gly-Asp-Asp-Asp-Asp-Lys-β-Naphtylamide, Tris-HCl pH 8.0, Dixon plot
Readout: pKi
pKi here: minus log base 10 of the concentration, concentration in moles per litre.

These solved cases illustrate the format of a correct answer.
COc1ncccc1NC(=O)C(C)(C)Cc1ccc(C(=O)Oc2ccc(C(=N)N)cc2F)s1; 8.43
CC(C)(Cc1ccc(C(=O)Oc2ccc(C(=N)N)cc2F)s1)C(=O)Nc1cc(C(=O)O)ccc1C(=O)O; 9.41

The record that follows has no pKi shown yet.
Consider the compound `CC(C)(Cc1ccc(C(=O)Oc2ccc(C(=N)N)cc2F)s1)C(=O)N1C[C@H]1C(=O)O` and give its measured pKi.
8.95

###

Target Of Assay: recombinant human enteropeptidase (Homo sapiens (Human), UniProt P98073)
Assay Overview: Measurement of enteropeptidase inhibitory activity
Condition Parameters: substrate Gly-Asp-Asp-Asp-Asp-Lys-β-Naphtylamide, Tris-HCl pH 8.0, Dixon plot
Method: Measurement of Enteropeptidase Inhibitory Activity Using a 96 well plate (#3915, Costar), a test compound (25 μL), 400 mM Tris-HCl buffer (pH 8.0, 25 μL) and 0.5 mg/mL fluorescence enzyme substrate (Gly-Asp-Asp-Asp-Asp-Lys-β-Naphtylamide, 25 μL) were mixed, and recombinant human enteropeptidase (R&D Systems, Inc., 25 μL) was added. […] The Ki value was calculated from the concentration of the test compound, reciprocal of reaction rate, and Km value of the enzyme substrate, and by using Dixon plot.
pKi: −log10 of the molar value.
Classification field: enter yes (1) for pKi values not below 9, no (0) for values below it.

Consider the worked cases shown below.
CC(C)(Cc1ccc(C(=O)Oc2ccc(C(=N)N)cc2F)s1)C(=O)Nc1ccccc1C(=O)O; no (0)
CC(C)(Cc1ccc(C(=O)Oc2ccc(C(=N)N)cc2F)s1)C(=O)N1CC(F)(F)C1; no (0)
CC(C)(Cc1ccc(C(=O)Oc2ccc(C(=N)N)cc2F)s1)C(=O)N[C@@H](C(=O)O)C1CCCCC1; no (0)
CCC(CC)(Cc1ccc(C(=O)Oc2ccc(C(=N)N)cc2F)s1)C(=O)N[C@H](CCC(=O)O)C(=O)O; yes (1)
CC(C)(Cc1ccc(C(=O)Oc2ccc(C(=N)N)cc2F)s1)C(=O)NC1(C(=O)O)CCC1; yes (1)

Is pKi for `CC(C)(Cc1ccc(C(=O)Oc2ccc(C(=N)N)cc2F)s1)C(=O)Nc1ccc[nH]c1=O` at or above 9?
no (0)

###

Observed pKi for human trypsin (Homo sapiens), reported per entry below.
pKi here: minus log base 10 of the concentration, concentration in moles per litre.

These solved cases illustrate the format of a correct answer.
CC(C)(Cc1ccc(C(=O)Oc2ccc(C(=N)N)cc2F)s1)C(=O)N1C[C@@H]1C(=O)O; 8.82
CC(C)(Cc1ccc(C(=O)Oc2ccc(C(=N)N)cc2F)s1)C(=O)NC(C)(C)C(=O)O; 9.02
CCC(CC)(Cc1ccc(C(=O)Oc2ccc(C(=N)N)cc2F)s1)C(=O)N[C@H](C(=O)O)C(C)O (stereo partly drawn); 8.76

// map `CC(C)(Cc1ccc(C(=O)Oc2ccc(C(=N)N)cc2F)s1)C(=O)N[C@@H](C(=O)O)C1CCCCC1` to recorded pKi (system: human trypsin (Homo sapiens))
8.51

Would you kindly repeat that for `CC(C)(Cc1ccc(C(=O)Oc2ccc(C(=N)N)cc2F)s1)C(=O)Nc1ccc[nH]c1=O` ?
8.34

Would you kindly repeat that for `CCC(CC)(Cc1ccc(C(=O)Oc2ccc(C(=N)N)cc2F)s1)C(=O)N[C@@H](CC(=O)O)C(=O)O` ?
9.09

Would you kindly repeat that for `CCC(CC)(Cc1ccc(C(=O)Oc2ccc(C(=N)N)cc2F)s1)C(=O)NCCC(=O)O` ?
8.60

Would you kindly repeat that for `CCC(CC)(Cc1ccc(C(=O)Oc2ccc(C(=N)N)cc2F)s1)C(=O)NCCC[C@H](N)C(=O)O` ?
8.24
